Please provide measured GI50 for the entries that follow.
system: RXF 393; assay: NCI tumour cell line growth inhibition, 48 h
Activity calls are given as the source filed them. Rule as the data show it: active = GI50 up to about 1.1 µM and inactive = higher.

The following compounds have reported results that may help.
1. CC(C)=CC(=O)Cc1nc2cc(C)c(C)cc2[nH]c1=O = 64.9 µM (inactive)
2. CN(C)C(=O)C1CCC(=C2C(=O)OC(C)(C)OC2=O)N1C (stereo not given) = > 100 µM (inactive)

For every listed record, write down its GI50.
1. Nc1nc(=O)n(C2OC(CO)C(O)C2O)c2ncc(-c3ccc(-c4ccccc4)cc3)nc12 (stereo not given)
2. O=C(c1ccco1)C1CC(c2c(O)ccc3ccccc23)=NN1 (stereo not given)
3. NC1CC(=O)c2csc(Cl)c21 (stereo not given)
4. Cc1ccc(OP(=O)(Oc2ccc(C)cc2)N2C=Cc3ccccc3C2C#N)cc1 (stereo not given)

### Response
1: > 100 µM (inactive); 2: 17.4 µM (inactive); 3: 5.78 µM (inactive); 4: > 100 µM (inactive)

For every listed record, write down its GI50.
1. CN(C)c1ccc(/C=C/C(=O)c2ccc(O)cc2)cc1
2. COc1ccc(/C(Cl)=C(\C=O)c2ccc(OC)cc2)cc1
3. COc1ccc2c(c1)/C(=C\c1c(Cl)n(-c3ccccc3)c3ccccc13)C(=O)N2
4. COC(=O)c1cc(C)c(C)c2c1NC(=O)CNC2=O

### Response
1. 6.27 µM (inactive)
2. > 100 µM (inactive)
3. 2.45 µM (inactive)
4. > 100 µM (inactive)

For every listed record, write down its GI50.
1. O=C1CCN(CCC(F)(F)C(F)(F)C(F)(F)C(F)(F)F)C(=S)N1
2. Oc1ccccc1/C=N/Nc1nc(N/N=C/c2ccccc2O)nc(N/N=C/c2ccccc2O)n1
3. CCN(CC)CCNC(=O)c1cccc2nc3ccccc3nc12
4. CCCN(C(=O)c1ccccc1)C(C#N)c1ccc(C(C#N)N(CCC)C(=O)c2ccccc2)cc1 (stereo not given)
5. O/N=C(/C(Cl)=C(Cl)Cl)C(Cl)Cl
6. O=c1[nH]c(=O)n(C2OC(COP(=O)(O)OP(=O)(O)O)C(O)C2O)cc1F (stereo not given)
7. CCSc1c2ccccc2c(-c2nc(F)nc(F)n2)n1CCc1ccccc1

### Response
> 100 µM (inactive)
87.1 µM (inactive)
12.4 µM (inactive)
35.6 µM (inactive)
16.3 µM (inactive)
2.57 µM (inactive)
> 100 µM (inactive)

For every listed record, write down its GI50.
1. O=C(CCCN1CCC2(CC1)C(=O)NC(=O)N2c1ccccc1)c1ccc(F)cc1
2. CC#CCCN(CC#N)Cc1ccccc1
3. Cn1c2c(c3ccccc31)CCN(CCCN1CCN(c3cccc(Cl)c3)CC1)C2=O
4. O=C(NCCCCCCNC(=O)c1cccc2ccccc12)c1cccc2ccccc12
5. O=C1N/C(=N/N=C/c2cccs2)N/C1=C\c1ccco1

### Response
1. > 100 µM (inactive)
2. > 100 µM (inactive)
3. 14.9 µM (inactive)
4. 8.51 µM (inactive)
5. 90.6 µM (inactive)

For every listed record, write down its GI50.
1. CC1=C[P+](Cc2ccccc2)(c2ccccc2)CC1 (stereo not given)
2. CC(C)(C)OC(=O)N(CCCCNC(=O)C(F)(F)F)CCCNC(=O)C(F)(F)F
3. CC(=O)Nc1cc(C(=O)Nc2cc(C(=O)Nc3cc(C(=O)Nc4cc(C(=O)Nc5cc(C(=O)NCCC(=O)NCCCN(C)C)n(C)c5)n(C)c4)n(C)c3)n(C)c2)n(C)c1
4. CCc1nc2ccc(NCCN(C)C)c3c(=O)c4ccccc4n1c23

### Response
1. > 100 µM (inactive)
2. > 100 µM (inactive)
3. > 100 µM (inactive)
4. 1.67 µM (inactive)

For every listed record, write down its GI50.
1. CN1CCCC2C(c3ccccc3)C(C3=NCCCC3)C(c3ccccc3)CC21 (stereo not given)
2. CCOC(=O)c1ccc(Nc2c3c(nc4ccccc24)CCCC3)cc1
3. CNS(=O)(=O)c1ccccc1C(=N)c1ccccc1
4. COc1ccc(N[S+]([O-])c2ccc(-c3ccccc3)cc2)cc1 (stereo not given)
5. O=C(Nc1ccccc1C(=O)O)/C(=C/c1ccccc1)NC(=O)c1ccccc1
6. c1ccc2c(CNCCCCCCNCc3cccc4ccccc34)cccc2c1
7. CCCC(=O)OCOC(=O)N(C)/N=N/c1ccc(C(=O)OCC)cc1

### Response
1: 23.4 µM (inactive); 2: 33.9 µM (inactive); 3: > 100 µM (inactive); 4: > 100 µM (inactive); 5: 65.9 µM (inactive); 6: 2.19 µM (inactive); 7: 16.3 µM (inactive)

For every listed record, write down its GI50.
1. N#CC1C(=O)NC23CCCCC2C1c1ccccc1O3 (stereo not given)
2. CN1CCC(CN2c3ccccc3Sc3ccccc32)CC1
3. O=C1C=CC(=O)c2c1ccc1c3ccccc3n(Cc3ccccc3)c21
4. N#C/C(=C\c1cc(Cl)cc(Cl)c1)c1ccccn1
5. CN(c1ccccc1)c1cc2ccccc2nn1
6. CC(=O)OCC1OC(O[C@@H]2C[C@H]3C(C)(C)[C@H](OC(C)=O)CC[C@]3(C)[C@H]3CC[C@@]45C[C@H](O)C[C@H](C)[C@@H]4CC=C5[C@@]32C)C(O)C(O)C1O (stereo not given in full)

### Response
1: > 100 µM (inactive); 2: 3.07 µM (inactive); 3: 16.8 µM (inactive); 4: 5.11 µM (inactive); 5: > 100 µM (inactive); 6: 2.11 µM (inactive)

For every listed record, write down its GI50.
1. COc1ccccc1/C=C/c1cnccn1
2. COC(=O)C(=O)C(CC(=O)Nc1ccc(C)cc1)C(=O)OC (stereo not given)
3. Cc1cccc2sc(NC(=O)NS(=O)(=O)n3cnc4ccccc43)nc12
4. O=c1oc2ccc3ccccc3c2cc1-c1nc2ccccc2o1
5. O=C(CNc1ccccc1[N+](=O)[O-])Nn1c(-c2ccccc2)nc2ccccc2c1=O

### Response
["> 10 µM (inactive)", "> 100 µM (inactive)", "15.9 µM (inactive)", "16.1 µM (inactive)", "20.1 µM (inactive)"]

Reported GI50 (RXF 393) for entry O=C(Nc1ccccc1Br)c1cccc([N+](=O)[O-])c1O is 1.86 µM (inactive)
